Origin of measurements: ChEMBL document CHEMBL1139757

- Tested on: MCF7
- Protocol summary: Cytotoxicity against human MCF7 cells by MTT assay
- Assay type: functional, cell-based
IC50 listing for selected molecules.

// solved cases for IC50 follow
molecule="CC(=O)O[C@@]12CO[C@@H]1C[C@H](OC(=O)CC(O)C(=O)O)[C@@]1(C)C(=O)[C@H](OC(=O)CC(O)C(=O)O)C3=C(C)[C@@H](OC(=O)[C@H](OC(=O)CC(O)C(=O)O)[C@@H](NC(=O)OC(C)(C)C)c4ccccc4)C[C@@](O)([C@@H](OC(=O)c4ccccc4)[C@H]21)C3(C)C (mixture of isomers)" measured_value="> 50 mg/L"
molecule="CC(=O)O[C@@]12CO[C@@H]1C[C@H](OC(=O)CC(O)C(=O)O)[C@@]1(C)C(=O)[C@H](O)C3=C(C)[C@@H](OC(=O)[C@H](O)[C@@H](NC(=O)OC(C)(C)C)c4ccccc4)C[C@@](O)([C@@H](OC(=O)c4ccccc4)[C@H]21)C3(C)C (mixture of isomers)" measured_value="> 50 mg/L"
molecule=CC(=O)O[C@@]12CO[C@@H]1C[C@H](O)[C@@]1(C)C(=O)[C@H](O)C3=C(C)[C@@H](OC(=O)[C@H](OC(=O)C[C@@H](O)C(=O)[O-])[C@@H](NC(=O)OC(C)(C)C)c4ccccc4)C[C@@](O)([C@@H](OC(=O)c4ccccc4)[C@H]21)C3(C)C.[Na+] measured_value="> 50 mg/L"
molecule=CC(=O)O[C@@]12CO[C@@H]1C[C@H](O)[C@@]1(C)C(=O)[C@H](O)C3=C(C)[C@@H](OC(=O)[C@H](OC(=O)C[C@H](O)C(=O)[O-])[C@@H](NC(=O)OC(C)(C)C)c4ccccc4)C[C@@](O)([C@@H](OC(=O)c4ccccc4)[C@H]21)C3(C)C.[Na+] measured_value="> 50 mg/L"

Next, consider the following molecule.
Just so you know, measured IC50 for CC(=O)O[C@@]12CO[C@@H]1C[C@H](O)[C@@]1(C)C(=O)[C@H](O)C3=C(C)[C@@H](OC(=O)[C@H](O)[C@@H](NC(=O)OC(C)(C)C)c4ccccc4)C[C@@](O)([C@@H](OC(=O)c4ccccc4)[C@H]21)C3(C)C.O.O.O came out at 3.3 mg/L
